Data provenance: patent US4945171A

ASSAY_METHOD_TEXT: fluorescence excitation/emission and quantum yield of benzo[c]xanthene dyes
Type: physicochemical
STUDY_CONDITIONS: base form
MEASUREMENT_TYPE: FLUORESCENCE, BASE EXCITE (NM)

- CN(C)c1ccc2c(c1)Oc1c(ccc3cc(O)ccc13)C21OC(=O)c2cc(C(=O)O)ccc21 (stereo not shown) [Compound 8]: 581
- O=C(O)c1ccc2c(c1)C(=O)OC21c2cc3c4c(c2Oc2c1ccc1cc(O)ccc21)CCCN4CCC3 (stereo not shown) [Compound 11]: 590
- CCNc1cc2c(cc1C)C1(OC(=O)c3ccccc31)c1ccc3cc(O)ccc3c1O2 (stereo not shown) [Compound 7]: 558
- O=C(O)c1ccc2c(c1)C1(OC2=O)c2cc(Cl)c(O)cc2Oc2c1ccc1cc(O)ccc21 (stereo not shown) [Compound 3]: 552

====

ASSAY_METHOD_TEXT: absorption spectra (maxima and extinction coefficients) of benzo[c]xanthene dyes
Type: physicochemical
STUDY_CONDITIONS: base form
MEASUREMENT_TYPE: EXTINCTION COEFFICIENT, BASE MAXIMUM

* CN(C)c1ccc2c(c1)Oc1c(ccc3cc(O)ccc13)C21OC(=O)c2ccccc21 (stereo not shown) | 44.1 10^3 cm^-1 M^-1
* O=C1OC2(c3ccc(O)cc3Oc3c2ccc2cc(O)ccc32)c2ccccc21 (stereo not shown) | 49.7 10^3 cm^-1 M^-1
* O=C(O)c1ccc2c(c1)C1(OC2=O)c2cc(Cl)c(O)cc2Oc2c1ccc1cc(O)ccc21 (stereo not shown) | 40.4 10^3 cm^-1 M^-1
* O=C(O)c1ccc2c(c1)C(=O)OC21c2cc3c4c(c2Oc2c1ccc1cc(O)ccc21)CCCN4CCC3 (stereo not shown) | 38.7 10^3 cm^-1 M^-1

Item: CN(C)c1ccc2c(c1)Oc1c(ccc3cc(O)ccc13)C21OC(=O)c2cc(C(=O)O)ccc21 (stereo not shown) | EXTINCTION COEFFICIENT, BASE MAXIMUM: 44.9 10^3 cm^-1 M^-1

Item: CCN(CC)c1ccc2c(c1)Oc1c(ccc3cc(O)ccc13)C21OC(=O)c2ccc(C(=O)O)cc21 (stereo not shown) | EXTINCTION COEFFICIENT, BASE MAXIMUM: 51.5 10^3 cm^-1 M^-1

Item: CCN(CC)c1ccc2c(c1)Oc1c(ccc3cc(O)ccc13)C21OC(=O)c2ccccc21 (stereo not shown) | EXTINCTION COEFFICIENT, BASE MAXIMUM: 46.4 10^3 cm^-1 M^-1

====

ASSAY_METHOD_TEXT: physchem
STUDY_CONDITIONS: 40 mm potassium phosphate buffer
MEASUREMENT_TYPE: pKa

• O=C1OC2(c3ccc(O)cc3Oc3c2ccc2cc(O)ccc32)c2ccccc21 (stereo not shown) [Compound 1] = 7.85
• CCNc1cc2c(cc1C)C1(OC(=O)c3ccccc31)c1ccc3cc(O)ccc3c1O2 (stereo not shown) [Compound 7] = 7.7
• CCN(CC)c1ccc2c(c1)Oc1c(ccc3cc(O)ccc13)C21OC(=O)c2ccc(C(=O)O)cc21 (stereo not shown) [Compound 9] = 7.75
• O=C(O)c1ccc2c(c1)C(=O)OC21c2cc3c4c(c2Oc2c1ccc1cc(O)ccc21)CCCN4CCC3 (stereo not shown) [Compound 11] = 7.9

====

ASSAY_METHOD_TEXT: absorption spectra (maxima and extinction coefficients) of benzo[c]xanthene dyes
Type: physicochemical
STUDY_CONDITIONS: base form
MEASUREMENT_TYPE: ABSORPTION, BASE MAXIMUM (NM)

• CN(C)c1ccc2c(c1)Oc1c(ccc3cc(O)ccc13)C21OC(=O)c2cc(C(=O)O)ccc21 (stereo not shown) = 574
• CCNc1cc2c(cc1C)C1(OC(=O)c3ccccc31)c1ccc3cc(O)ccc3c1O2 (stereo not shown) = 552
• O=C(O)c1ccc2c(c1)C(=O)OC21c2cc3c4c(c2Oc2c1ccc1cc(O)ccc21)CCCN4CCC3 (stereo not shown) = 587
• CN(C)c1ccc2c(c1)Oc1c(ccc3cc(O)ccc13)C21OC(=O)c2ccccc21 (stereo not shown) = 573
